- protocol_description: End group determination
- Assay type: physicochemical
- condition_context: PET I.V. 0.73 + 1% salt, 2-roll mill 300 °C 2 min
property_measured: End Groups --COOH (moles × 10^-6 g^-1)
Answers are plain numbers, in moles × 10^-6 g^-1.

Dear colleague, could you send me End Groups --COOH for each of the items below? Thanks.
1. O=C([O-])c1ccc(O)cc1.[Na+] [sodium p-hydroxybenzoate]
2. O=C(O)c1ccccc1Cl
3. O=C(O)c1ccc(Cl)cc1Cl

1: 102; 2: 45; 3: 67

====

- protocol_description: End group determination
- Assay type: physicochemical
- condition_context: PET I.V. 0.73 + 1% salt, 2-roll mill 300 °C 2 min
property_measured: End Groups Total from solution I.V. (moles × 10^-6 g^-1)
Give bare numbers, in moles × 10^-6 g^-1.

Take a look at these entries with their results.
molecule: CC(C)(C)c1ccc(C(=O)[O-])cc1.[Na+] [sodium para-tert-butylbenzoate, reference compound]
value_units: moles × 10^-6 g^-1
End Groups Total from solution I.V.: 157

molecule: O=C([O-])c1c(Cl)cccc1Cl.[Na+] [sodium 2,6-dichlorobenzoate]
value_units: moles × 10^-6 g^-1
End Groups Total from solution I.V.: 153

molecule: O=C(O)c1ccccc1Cl
value_units: moles × 10^-6 g^-1
End Groups Total from solution I.V.: 167

molecule: O=C(O)c1ccccc1 [sodium benzoate, reference compound]
value_units: moles × 10^-6 g^-1
End Groups Total from solution I.V.: 136

molecule: O=C([O-])c1c(O)cccc1O.[Na+] [sodium 2,6-dihydroxybenzoate]
value_units: moles × 10^-6 g^-1
End Groups Total from solution I.V.: 127

Dear colleague, could you send me End Groups Total from solution I.V. for each of the items below? Thanks.
1. O=C(O)c1ccc(Cl)cc1Cl
2. O=C([O-])c1ccc(O)cc1.[Na+] [sodium p-hydroxybenzoate]
3. O=C([O-])c1cc(O)cc(O)c1.[Na+] [sodium 3,5-dihydroxybenzoate]

1. 192
2. 148
3. 138
